log2 fold change of degron read counts overview
Target: T1, CRBN, Q96SW2;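 further: pooled lentiviral library of zinc finger degron-EGFP fusions in mCherry-positive Jurkat cells, FACS-sorted after compound exposure, with degron abundance counted by next-generation sequencing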
T1 chain: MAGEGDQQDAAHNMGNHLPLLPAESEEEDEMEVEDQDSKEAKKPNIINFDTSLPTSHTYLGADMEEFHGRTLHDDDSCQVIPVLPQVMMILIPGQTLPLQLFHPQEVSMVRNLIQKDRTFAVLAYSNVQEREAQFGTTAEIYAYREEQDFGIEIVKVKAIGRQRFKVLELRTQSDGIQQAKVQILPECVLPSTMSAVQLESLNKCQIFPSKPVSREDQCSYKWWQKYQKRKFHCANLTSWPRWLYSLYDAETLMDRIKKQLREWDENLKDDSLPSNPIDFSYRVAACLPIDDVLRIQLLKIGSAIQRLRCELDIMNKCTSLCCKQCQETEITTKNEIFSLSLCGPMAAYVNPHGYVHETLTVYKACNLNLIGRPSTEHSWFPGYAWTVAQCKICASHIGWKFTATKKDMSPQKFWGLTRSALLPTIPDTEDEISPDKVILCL
Assay: log2 fold change of degron read counts, EGFP-low vs EGFP+ sorted cells (limma voom), compound-induced degradation; higher = more compound-induced degradation of the degron-EGFP fusion; degrons are variants of IKZF1/3 zinc finger 2; compound dose not given here
Settings: Jurkat; 18 h; compound: compound 22 (5-morpholino-thalidomide)
The full ranking holds about 8,300 sequences; the median of “log2 fold change of degron read counts, EGFP-low vs EGFP+ sorted cells (limma voom), compound-induced degradation” is about -1.1, and the highest 2% start at about 3.2. Shown is part of a subset that was picked to be rich in the highest values.
# answer = number (no unit)

[
  {
    "POLYMER_SEQUENCE": "FMCPVCGACFTQKGNLLRHIKL [46F_47M_49P_50V_52G_53A_54C_55F_67L_, Q9UKT9]",
    "log2 fold change of degron read counts": 0.321
  },
  {
    "POLYMER_SEQUENCE": "FTCEICGRSFTQKGNLLRHIKL [46F_47T_49E_50I_52G_53R_54S_55F_67L_, Q9UKT9]",
    "log2 fold change of degron read counts": -1.98
  },
  {
    "POLYMER_SEQUENCE": "FMCNVCGAAFTQKGNLLRHIKL [46F_47M_49N_50V_52G_53A_54A_55F_67L_, Q9UKT9]",
    "log2 fold change of degron read counts": -0.0279
  }
]

Ask: Please look up its log2 fold change of degron read counts: FYCEQCGATFTQKGNLLRHIKL [46F_47Y_49E_50Q_52G_53A_54T_55F_67L_, Q9UKT9]
Result: 2.41
